Cited source: patent US10344049B2

# System: human lung cancer cells A549
# Procedure Text: Cell viability test (Resazurin), A549 cells
# Format: cell-based
# Settings: Homo sapiens, A549, A549 cells; grade of the IC50 of Table 2; read-out: evaluation of ability to inhibit cell growth activity (IC50)
Each entry below lists one item and its recorded IC50 value.
Readout: IC50

>>> result("CC(=O)O[C@@H](C=C(C)C)C[C@@H](C)[C@H]1CC[C@@]2(C)[C@@H]3[C@@H](O)C=C4[C@@H](CC[C@H](O)C4(C)C)[C@]3(C=O)CC[C@]12C")
"8 to 16 µM"
>>> result("COC1O[C@]23C=C[C@@H]4[C@@]1(CC[C@]1(C)[C@@H]([C@H](C)C[C@@H](O)C=C(C)C)CC[C@@]41C)[C@@H]2CC[C@H](O)C3(C)C (some centres unmarked)")
"> 256 µM"
>>> result("CC(C)=CC(=O)C[C@@H](C)[C@H]1CC[C@@]2(C)[C@@H]3[C@@H](O)C=C4[C@@H](CC[C@H](O)C4(C)C)[C@]3(C=O)CC[C@]12C")
"> 256 µM"
>>> result("CC(=O)O[C@H]1C=C2[C@@H](CC[C@H](OC(C)=O)C2(C)C)[C@]2(C=O)CC[C@]3(C)[C@@H]([C@H](C)C/C=C/C(C)(C)O)CC[C@@]3(C)[C@H]12")
"8 to 16 µM"
>>> result("CC(=O)O[C@H]1C=C2[C@@H](CC[C@H](O)C2(C)C)[C@]2(C=O)CC[C@]3(C)[C@@H]([C@H](C)C[C@H](C=C(C)C)OC(C)=O)CC[C@@]3(C)[C@H]12")
"< 8 µM"

* * *

Each entry below lists one item and its recorded IC50 value.
# Tested on: human colorectal cancer cells SW-480
# Procedure Text: Cell viability test (Resazurin), SW480 cells
# Format: cell-based
# Settings: Homo sapiens, SW480, SW480 cells; grade of the IC50 of Table 2; read-out: evaluation of ability to inhibit cell growth activity (IC50)
Readout: IC50

>>> result("CO[C@@H]1O[C@]23C=C[C@@H]4[C@@]1(CC[C@]1(C)[C@@H]([C@H](C)C/C=C/C(C)(C)OC)CC[C@@]41C)[C@@H]2CC[C@H](O)C3(C)C [Compound 15]")
"> 256 µM"
>>> result("CC(=O)O[C@H]1C=C2[C@@H](CC[C@H](OC(C)=O)C2(C)C)[C@]2(C=O)CC[C@]3(C)[C@@H]([C@H](C)C/C=C/C(C)(C)O)CC[C@@]3(C)[C@H]12 [Compound 4]")
"8 to 16 µM"
>>> result("CC(=O)O[C@H]1CC[C@@H]2C(=C[C@H](O)[C@@H]3[C@@]2(C=O)CC[C@]2(C)[C@@H]([C@H](C)C[C@H](C=C(C)C)OC(C)=O)CC[C@@]32C)C1(C)C [Compound 6]")
"8 to 16 µM"
>>> result("CC(C)=C[C@H](O)C[C@@H](C)[C@H]1CC[C@@]2(C)[C@@H]3[C@@H](O)C=C4[C@@H](CC[C@H](O)C4(C)C)[C@]3(C=O)CC[C@]12C [Compound 2]")
"8 to 16 µM"
>>> result("COC1O[C@]23C=C[C@@H]4[C@@]1(CC[C@]1(C)[C@@H]([C@H](C)C[C@H](C=C(C)C)OC)CC[C@@]41C)[C@@H]2CC[C@H](O)C3(C)C (some centres unmarked) [Compound 16]")
"> 256 µM"
